Hello, the source for this data is patent US8173635B2, in case you need it.

- target: PKC delta kinase (Homo sapiens)
- Sequence (Q05655 whole entry): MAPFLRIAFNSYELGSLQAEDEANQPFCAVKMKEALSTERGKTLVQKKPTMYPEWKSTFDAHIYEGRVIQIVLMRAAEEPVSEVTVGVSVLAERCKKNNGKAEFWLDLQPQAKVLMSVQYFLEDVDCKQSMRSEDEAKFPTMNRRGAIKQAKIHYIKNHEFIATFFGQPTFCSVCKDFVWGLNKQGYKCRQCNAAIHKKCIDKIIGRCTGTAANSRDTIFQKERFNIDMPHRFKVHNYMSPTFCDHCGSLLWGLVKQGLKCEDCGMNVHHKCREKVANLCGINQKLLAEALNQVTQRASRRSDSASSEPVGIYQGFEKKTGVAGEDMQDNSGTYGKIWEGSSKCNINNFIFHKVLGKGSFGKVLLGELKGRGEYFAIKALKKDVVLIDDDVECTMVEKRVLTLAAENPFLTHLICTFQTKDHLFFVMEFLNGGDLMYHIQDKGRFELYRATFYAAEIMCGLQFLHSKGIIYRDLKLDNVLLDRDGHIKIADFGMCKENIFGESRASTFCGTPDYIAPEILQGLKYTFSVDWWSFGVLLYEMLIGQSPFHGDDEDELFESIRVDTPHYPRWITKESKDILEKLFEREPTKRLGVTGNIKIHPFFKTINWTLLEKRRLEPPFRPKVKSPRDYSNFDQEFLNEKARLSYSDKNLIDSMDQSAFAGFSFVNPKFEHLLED
- measurement-description: PKC delta kinase inhibition, coupled-enzyme NADH absorbance assay (Ki)
- Assay type: biochemical
- experimental-setup: 150 μM ATP, 46 nM PKC delta, 30° C.; read-out: Ki PKC delta
reported-property: Ki

In the examples that follow, each entry is paired with its recorded Ki.
>>> print(df.to_string())
                                   molecule  endpoint_value
0  CCC(C)(C#N)c1cc(-c2ccnc3[nH]ncc23)cc(C(C)(F)F)c1 (stereo not shown) [Compound 111]        < 2.8 µM
1  N#CC(CCN)c1cccc(-c2ccnc3[nH]ncc23)c1 (stereo not shown) [Compound 225]        < 2.8 µM
2  Cc1cc(-c2ccnc3[nH]ncc23)cc(C2(Cc3ccccc3)CNC(=O)O2)c1 (stereo not shown) [Compound 327]        > 1.2 µM
3  N#CC1(c2cc(CCCN)cc(-c3ccnc4[nH]ncc34)c2)CC1 [Compound 301]        < 0.5 µM
4  CCCC(C)(CN)c1cccc(-c2ccnc3[nH]ncc23)c1 (stereo not shown) [Compound 51]       < 0.05 µM
5  CC(C#N)(c1cccc(-c2ccnc3[nH]ncc23)c1)C1CCCC1 (stereo not shown) [Compound 72]        > 2.8 µM
6  CC(CN)(CC1CCOCC1)c1cccc(-c2ccnc3[nH]ncc23)c1 (stereo not shown) [Compound 179]        < 0.5 µM
7  Cc1cnc2[nH]ncc2c1-c1cccc(C(C)(C)CN)c1 [Compound 237]        < 2.8 µM
8  CC(O)c1cccc(-c2ccnc3[nH]ncc23)c1 (stereo not shown) [Compound 244]        > 1.2 µM
9  NC[C@]1(c2cccc(-c3ccnc4[nH]ncc34)c2)CC[C@H](O)CC1 [Compound 183]        < 2.8 µM

// each molecule listed below needs its Ki
1. COc1ccc(C2(CN)CCC2)cc1-c1ccnc2[nH]ncc12 [Compound 222]
2. NCC1(c2cccc(-c3ccnc4[nH]ncc34)c2)CC(F)(F)C1 [Compound 235]
3. C=CCC1(c2cc(C)cc(-c3ccnc4[nH]ncc34)c2)CNC(=O)O1 (stereo not shown) [Compound 325]
4. C#CCC(CC)(CN)c1cccc(-c2ccnc3[nH]ncc23)c1 (stereo not shown) [Compound 178]
5. CCC(C)(CN)c1cc(CCCOC)cc(-c2ccnc3[nH]ncc23)c1 (stereo not shown) [Compound 164]
6. CCc1cc(-c2ccnc3[nH]nc(Cl)c23)cc(C2(CN)CCC2)c1 [Compound 211]

Completion:
> 2 µM
< 0.5 µM
> 1.2 µM
< 0.5 µM
< 2.8 µM
< 2.8 µM

// each molecule listed below needs its Ki
1. CCC(C)(C#N)c1cc(CC(F)(F)F)cc(-c2ccnc3[nH]ncc23)c1 (stereo not shown) [Compound 113]
2. COC(CN)c1cc(C)cc(-c2ccnc3[nH]ncc23)c1 (stereo not shown) [Compound 248]
3. NCC1(c2cccc(-c3ccnc4[nH]nc(Cl)c34)c2)CCC1 [Compound 260]
4. COC(CN)c1cc(C)cc(-c2ccnc3[nH]nc(C(F)(F)F)c23)c1 (stereo not shown) [Compound 297]
5. CC(=O)N1CCN(c2cc(-c3ccnc4[nH]ncc34)cc(C(C)(C)C#N)c2)CC1 [Compound 7]
6. CC(C)(C#N)c1cc(N)cc(-c2ccnc3[nH]ncc23)c1 [Compound 13]
7. C=CC1(c2cccc(-c3ccnc4[nH]ncc34)c2)CCNC1 (stereo not shown) [Compound 193]

Completion:
1: > 2 µM; 2: < 2.8 µM; 3: < 0.05 µM; 4: < 2.8 µM; 5: > 2.8 µM; 6: < 2.8 µM; 7: < 0.5 µM

// each molecule listed below needs its Ki
1. NCC1(c2cccc(-c3ccnc4[nH]nc(C(F)(F)F)c34)c2)CC1 [Compound 278]
2. CCc1cc(-c2ccnc3[nH]nc(C(F)(F)F)c23)cc(C2(CN)CCC2)c1 [Compound 272]
3. COCC(C)(C#N)c1cccc(-c2ccnc3[nH]ncc23)c1 (stereo not shown) [Compound 95]
4. OCC1(c2cccc(-c3ccnc4[nH]nc(C(F)(F)F)c34)c2)CC1 [Compound 290]

Completion:
1. < 0.5 µM
2. < 2.8 µM
3. > 2.8 µM
4. < 0.5 µM
